# TESTED_ON: T1, factor VIIIa A1/A3C1C2 dimer, wild type (human, UniProt P00451 20-391; P00451 1709-2351)
# T1 sequence 1: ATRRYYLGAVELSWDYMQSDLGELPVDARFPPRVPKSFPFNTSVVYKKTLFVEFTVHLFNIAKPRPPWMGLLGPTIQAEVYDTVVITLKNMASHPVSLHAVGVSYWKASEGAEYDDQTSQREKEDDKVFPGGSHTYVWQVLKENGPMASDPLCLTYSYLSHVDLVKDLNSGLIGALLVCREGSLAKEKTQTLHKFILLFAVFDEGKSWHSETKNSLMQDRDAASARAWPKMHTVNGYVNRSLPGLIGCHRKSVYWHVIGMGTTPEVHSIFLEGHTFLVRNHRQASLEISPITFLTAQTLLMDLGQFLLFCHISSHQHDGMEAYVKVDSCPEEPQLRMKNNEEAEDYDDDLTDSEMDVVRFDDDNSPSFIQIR
# T1 sequence 2: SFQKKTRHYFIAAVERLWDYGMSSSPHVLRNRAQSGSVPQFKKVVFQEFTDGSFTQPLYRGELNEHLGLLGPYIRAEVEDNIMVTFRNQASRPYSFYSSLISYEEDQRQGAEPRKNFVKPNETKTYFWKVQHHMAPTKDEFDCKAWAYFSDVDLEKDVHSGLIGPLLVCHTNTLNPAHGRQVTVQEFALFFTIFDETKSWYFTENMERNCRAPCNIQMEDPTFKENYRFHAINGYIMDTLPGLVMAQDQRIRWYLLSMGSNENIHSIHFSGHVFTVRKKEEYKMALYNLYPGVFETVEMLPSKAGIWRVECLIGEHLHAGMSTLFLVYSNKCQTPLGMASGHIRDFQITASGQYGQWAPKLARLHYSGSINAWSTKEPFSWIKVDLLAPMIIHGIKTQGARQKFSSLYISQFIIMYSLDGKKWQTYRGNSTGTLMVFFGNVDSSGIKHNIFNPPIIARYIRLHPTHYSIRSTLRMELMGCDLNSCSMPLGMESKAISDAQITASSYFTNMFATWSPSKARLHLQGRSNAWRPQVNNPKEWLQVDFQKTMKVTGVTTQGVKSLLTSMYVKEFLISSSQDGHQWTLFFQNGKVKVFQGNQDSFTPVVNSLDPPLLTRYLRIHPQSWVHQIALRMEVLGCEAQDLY
# MEASUREMENT_NOTES: cell-based or functional assay
In this section we review reported Factor VIIIa Decay, Factor IXa present values for a set of binders.
Quick note: give the figure in min⁻¹, leave out the unit.

factor VIIIa A2 subunit, Glu665Val (other) SVAKKHPKTWVHYIAAEEEDWDYAPLVLAPDDRSYKSQYLNNGPQRIGRKYKKVRFMAYTDETFKTREAIQHESGILGPLLYGEVGDTLLIIFKNQASRPYNIYPHGITDVRPLYSRRLPKGVKHLKDFPILPGEIFKYKWTVTVEDGPTKSDPRCLTRYYSSFVNMERDLASGLIGPLLICYKESVDQRGNQIMSDKRNVILFSVFDENRSWYLTENIQRFLPNPAGVQLEDPEFQASNIMHSINGYVFDSLQLSVCLHEVAYWYILSIGAQTDFLSVFFSGYTFKHKMVYVDTLTLFPFSGETVFMSMENPGLWILGCHNSDFRNRGMTALLKVSSCDKNTGDYYEDSYEDISAYLLSKNNAIEPR :: 0.0052
factor VIIIa A2 subunit, wild type (other) SVAKKHPKTWVHYIAAEEEDWDYAPLVLAPDDRSYKSQYLNNGPQRIGRKYKKVRFMAYTDETFKTREAIQHESGILGPLLYGEVGDTLLIIFKNQASRPYNIYPHGITDVRPLYSRRLPKGVKHLKDFPILPGEIFKYKWTVTVEDGPTKSDPRCLTRYYSSFVNMERDLASGLIGPLLICYKESVDQRGNQIMSDKRNVILFSVFDENRSWYLTENIQRFLPNPAGVQLEDPEFQASNIMHSINGYVFDSLQLSVCLHEVAYWYILSIGAQTDFLSVFFSGYTFKHKMVYEDTLTLFPFSGETVFMSMENPGLWILGCHNSDFRNRGMTALLKVSSCDKNTGDYYEDSYEDISAYLLSKNNAIEPR :: 0.0154
factor VIIIa A2 subunit, Asp519Val (other) SVAKKHPKTWVHYIAAEEEDWDYAPLVLAPDDRSYKSQYLNNGPQRIGRKYKKVRFMAYTDETFKTREAIQHESGILGPLLYGEVGDTLLIIFKNQASRPYNIYPHGITDVRPLYSRRLPKGVKHLKDFPILPGEIFKYKWTVTVEVGPTKSDPRCLTRYYSSFVNMERDLASGLIGPLLICYKESVDQRGNQIMSDKRNVILFSVFDENRSWYLTENIQRFLPNPAGVQLEDPEFQASNIMHSINGYVFDSLQLSVCLHEVAYWYILSIGAQTDFLSVFFSGYTFKHKMVYEDTLTLFPFSGETVFMSMENPGLWILGCHNSDFRNRGMTALLKVSSCDKNTGDYYEDSYEDISAYLLSKNNAIEPR :: 0.0068
factor VIIIa A2 subunit, Asp519Ala (other) SVAKKHPKTWVHYIAAEEEDWDYAPLVLAPDDRSYKSQYLNNGPQRIGRKYKKVRFMAYTDETFKTREAIQHESGILGPLLYGEVGDTLLIIFKNQASRPYNIYPHGITDVRPLYSRRLPKGVKHLKDFPILPGEIFKYKWTVTVEAGPTKSDPRCLTRYYSSFVNMERDLASGLIGPLLICYKESVDQRGNQIMSDKRNVILFSVFDENRSWYLTENIQRFLPNPAGVQLEDPEFQASNIMHSINGYVFDSLQLSVCLHEVAYWYILSIGAQTDFLSVFFSGYTFKHKMVYEDTLTLFPFSGETVFMSMENPGLWILGCHNSDFRNRGMTALLKVSSCDKNTGDYYEDSYEDISAYLLSKNNAIEPR :: 0.0063

Next:
Asked: Return reported Factor VIIIa Decay, Factor IXa present; argument: factor VIIIa A2 subunit, Glu665Ala (other) SVAKKHPKTWVHYIAAEEEDWDYAPLVLAPDDRSYKSQYLNNGPQRIGRKYKKVRFMAYTDETFKTREAIQHESGILGPLLYGEVGDTLLIIFKNQASRPYNIYPHGITDVRPLYSRRLPKGVKHLKDFPILPGEIFKYKWTVTVEDGPTKSDPRCLTRYYSSFVNMERDLASGLIGPLLICYKESVDQRGNQIMSDKRNVILFSVFDENRSWYLTENIQRFLPNPAGVQLEDPEFQASNIMHSINGYVFDSLQLSVCLHEVAYWYILSIGAQTDFLSVFFSGYTFKHKMVYADTLTLFPFSGETVFMSMENPGLWILGCHNSDFRNRGMTALLKVSSCDKNTGDYYEDSYEDISAYLLSKNNAIEPR
Given back: 0.0078
